Experiment: self-splicing fitness, log relative to wild type (ln ratio); higher = more splicing; Tetrahymena group I intron in knt gene, E. coli kanamycin selection, DiMSum; sequences stand for … in CUCUCU…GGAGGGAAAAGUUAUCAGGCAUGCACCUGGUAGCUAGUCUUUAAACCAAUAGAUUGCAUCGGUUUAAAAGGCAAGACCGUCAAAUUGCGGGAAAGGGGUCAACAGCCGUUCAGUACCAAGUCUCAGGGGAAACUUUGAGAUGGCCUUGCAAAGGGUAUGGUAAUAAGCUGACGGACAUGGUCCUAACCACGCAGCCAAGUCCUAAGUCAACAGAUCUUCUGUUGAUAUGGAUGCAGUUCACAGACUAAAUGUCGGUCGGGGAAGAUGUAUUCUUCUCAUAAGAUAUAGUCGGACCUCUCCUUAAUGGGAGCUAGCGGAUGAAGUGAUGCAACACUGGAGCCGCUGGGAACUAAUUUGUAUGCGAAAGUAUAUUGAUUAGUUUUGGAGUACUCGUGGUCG;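 also: selection with 25 µg/mL kanamycin versus none on LB agar overnight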
Conditions: 37 °C
property-name: self-splicing fitness (ln)

* UGUCAGCAAUAUUACGCUUC | -1.76
* GAUAAGCAAUAUUACGUCAA | -1.39
* CAAAAGCAAUAUUACGCACU | -0.654
* UCAGAGCAAUAUUACGUUCC | -2.57
* CCUGAGCAAUAUUACGCUGC | -2.34
* AGAAAGCAAUAUUACGGACG | -0.116
* CCGCAGCAAUAUUACGUGUC | -2.34
* UUUCAGCAAUAUUACGUGUG | -0.142
* UCUAAGCAAUAUUACGCAAA | -2.97
* CGCGAGCAAUAUUACGGAAC | -2.43
* GCCGAGCAAUAUUACGAUCU | -0.908
* CGAAAGCAAUAUUACGAAUC | -1.87
* GACUAGCAAUAUUACGACAC | -0.0737
* ACGAAGCAAUAUUACGCACC | -0.0218
* AAUUAGCAAUAUUACGGAGU | -1.02
* CACGAGCAAUAUUACGGGAC | -2.55

---

Test: self-splicing fitness, log relative to wild type (ln ratio); higher = more splicing; Tetrahymena group I intron in knt gene, E. coli kanamycin selection, DiMSum; sequences stand for … in CUCUCU…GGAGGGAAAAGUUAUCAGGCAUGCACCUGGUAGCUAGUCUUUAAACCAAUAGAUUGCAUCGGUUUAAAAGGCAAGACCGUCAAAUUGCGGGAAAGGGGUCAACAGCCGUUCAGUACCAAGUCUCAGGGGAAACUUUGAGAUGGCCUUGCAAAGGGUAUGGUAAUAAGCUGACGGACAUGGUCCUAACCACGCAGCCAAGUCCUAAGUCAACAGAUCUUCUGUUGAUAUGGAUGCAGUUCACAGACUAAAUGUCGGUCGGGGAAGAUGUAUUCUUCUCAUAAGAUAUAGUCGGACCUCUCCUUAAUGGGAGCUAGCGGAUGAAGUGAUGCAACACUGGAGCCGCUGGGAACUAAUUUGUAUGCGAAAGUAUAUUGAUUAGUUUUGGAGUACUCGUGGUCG
Conditions: 30 °C
Quick rule for you: self-splicing fitness (ln) at -2 or higher means YES, lower means NO.

• GGCUAGCAAUAUUACGGAUU = YES
• CUUCAGCAAUAUUACGGAAG = NO
• CGGAAGCAAUAUUACGUUGU = NO
• GAUAAGCAAUAUUACGACAA = YES
• CCACAGCAAUAUUACGUCCC = NO
• CACCAGCAAUAUUACGCCAC = NO
• GCGUAGCAAUAUUACGAUUC = YES
• UAUUAGCAAUAUUACGUGUA = YES
• ACUCAGCAAUAUUACGUAUC = NO
• UCAUAGCAAUAUUACGGUUG = NO
• UGGGAGCAAUAUUACGCCUA = NO
• AGAGAGCAAUAUUACGCGGU = NO
• GGUCAGCAAUAUUACGGUCU = YES
• CAUAAGCAAUAUUACGUAUA = NO
• CGUUAGCAAUAUUACGUUAC = NO
• ACUAAGCAAUAUUACGAUCG = YES
• GGCAAGCAAUAUUACGUUCG = YES
• AUUAAGCAAUAUUACGUUGC = NO
• GAACAGCAAUAUUACGCAGC = NO
• AUGCAGCAAUAUUACGGUCG = YES
• CAUCAGCAAUAUUACGUAAG = YES
• GGGAAGCAAUAUUACGGAGU = NO
• CUAAAGCAAUAUUACGCUUU = NO
• CGUUAGCAAUAUUACGCCCG = YES
• GGAGAGCAAUAUUACGUUCU = NO
• CAGCAGCAAUAUUACGCCUG = NO
• GUGGAGCAAUAUUACGGGCA = NO
• UGCCAGCAAUAUUACGACCU = NO
• ACAGAGCAAUAUUACGAAAU = NO
• AACCAGCAAUAUUACGCCGU = YES
• GGAGAGCAAUAUUACGUCUA = YES
• AGUCAGCAAUAUUACGACCG = YES
• UUUCAGCAAUAUUACGUUAC = NO
• UACGAGCAAUAUUACGCGCC = NO

The reported numbers originate from the supplement of paper PMC7877785.
